assay: Inhibition of Caenorhabditis elegans carbonic anhydrase 4b by CO2 hydration assay
pKi: −log10 of the molar value.
So basically: pKi at 7 or higher? That is rule met. Lower than 7? That is rule not met.

Cc1ccc(-c2c(C(=O)NN)[nH]c3ccc(S(N)(=O)=O)cc23)cc1    rule met
NNC(=O)c1[nH]c2ccc(S(N)(=O)=O)cc2c1-c1ccc(Br)cc1    rule met
NNC(=O)c1[nH]c2ccc(S(N)(=O)=O)cc2c1-c1c(F)c(F)c(F)c(F)c1F    rule not met
NNC(=O)c1[nH]c2ccc(S(N)(=O)=O)cc2c1-c1ccccc1Br    rule not met
NNC(=O)c1[nH]c2ccc(S(N)(=O)=O)cc2c1-c1ccccc1Cl    rule not met
Cc1ccccc1-c1c(C(=O)NN)[nH]c2ccc(S(N)(=O)=O)cc12    rule not met
NNC(=O)c1[nH]c2ccc(S(N)(=O)=O)cc2c1-c1cccc(Br)c1    rule met
NNC(=O)c1[nH]c2ccc(S(N)(=O)=O)cc2c1-c1ccccc1F    rule met
NNC(=O)c1[nH]c2ccc(S(N)(=O)=O)cc2c1-c1cccc(Cl)c1    rule met

// data source = ChEMBL document CHEMBL1153906
